Reported SP values follow for various compounds
# Test system: Rattus norvegicus
# Method description: Starting systolic blood pressure at dose of 50 mg/kg in rat
# Type: functional, Artery
Property measured: SP (mmHg)

{"columns": ["Compound", "Assay system", "Observed measurement"],
 "data": [
  ["COc1ccc(NC(=O)NC2CCN(CC(O)C3COc4ccccc4O3)CC2)cc1 (stereo not drawn)", "Rattus norvegicus", 190],
  ["Cn1cc(CCN2CCC(NC(=O)NC(=O)c3ccccc3)CC2)c2ccccc21", "Rattus norvegicus", 172],
  ["O=C(NC(=O)c1cccs1)NC1CCN(CCCC(=O)c2c[nH]c3ccccc23)CC1", "Rattus norvegicus", 181],
  ["O=C(NC(=O)c1cccs1)NC1CCN(CCCC(=O)c2ccc(F)cc2)CC1", "Rattus norvegicus", 179],
  ["N=C(NC(=O)c1ccccc1)NC1CCN(CCc2c[nH]c3ccccc23)CC1", "Rattus norvegicus", 165],
  ["CN(C(=O)NC(=O)c1ccccc1)C1CCN(CCc2c[nH]c3ccccc23)CC1", "Rattus norvegicus", 186],
  ["O=C(NC1CCCCC1)NC1CCN(CCc2c[nH]c3ccccc23)CC1", "Rattus norvegicus", 176],
  ["O=C(NC(=O)c1ccccc1)NC1CCN(CCCC(=O)c2ccccc2)CC1", "Rattus norvegicus", 169],
  ["O=C(NC(=O)c1ccc(F)cc1)NC1CCN(CC(O)C2COc3ccccc3O2)CC1 (stereo not drawn)", "Rattus norvegicus", 183],
  ["O=C(Nc1ccc(Cl)cc1)NC1CCN(CCCC(=O)c2ccccc2)CC1", "Rattus norvegicus", 200],
  ["O=C(NC1CCN(CCc2c[nH]c3ccccc23)CC1)c1ccccc1", "Rattus norvegicus", 198],
  ["O=C(Nc1cccc(C(F)(F)F)c1)NC1CCN(CCc2c[nH]c3ccccc23)CC1", "Rattus norvegicus", 208],
  ["O=C(Nc1cccc(C(F)(F)F)c1)NC1CCN(CCCC(=O)c2ccccc2)CC1", "Rattus norvegicus", 177],
  ["O=C(NC(=S)NC1CCN(CCc2c[nH]c3ccccc23)CC1)c1ccccc1", "Rattus norvegicus", 200],
  ["CC(=O)Nc1ccc(OCC(O)CN2CCC(NC(=O)NC(=O)c3ccccc3)CC2)cc1 (stereo not drawn)", "Rattus norvegicus", 179],
  ["CN(C(=O)Nc1ccccc1)C1CCN(CCc2c[nH]c3ccccc23)CC1", "Rattus norvegicus", 174],
  ["COc1ccccc1OCC(O)CN1CCC(NC(=O)NC(=O)c2ccc(F)cc2)CC1 (stereo not drawn)", "Rattus norvegicus", 196],
  ["O=C(NC(=O)c1cccs1)NC1CCN(CCc2c[nH]c3ccccc23)CC1", "Rattus norvegicus", 193],
  ["OC(CN1CCC(/N=C(\\S)Nc2ccccc2)CC1)C1COc2ccccc2O1 (stereo not drawn)", "Rattus norvegicus", 182],
  ["O=C(Nc1ccc(Cl)cc1)NC1CCN(CC(O)C2COc3ccccc3O2)CC1 (stereo not drawn)", "Rattus norvegicus", 178],
  ["O=C(NC1CCCCC1)NC1CCN(CC(O)C2COc3ccccc3O2)CC1 (stereo not drawn)", "Rattus norvegicus", 172],
  ["O=C(NC(=O)c1ccccc1)NC1CCN(CCCC(=O)c2c[nH]c3ccccc23)CC1", "Rattus norvegicus", 187],
  ["O=C(NC(=S)NC1CCN(CC(O)C2COc3ccccc3O2)CC1)c1ccc(Cl)cc1 (stereo not drawn)", "Rattus norvegicus", 175]
]}
